Tested on: GLXMAW (Soybean, Williams)
ASSAY METHOD TEXT: Preemergence herbicidal evaluation
Format: in vivo, Glycine max, (L.) Merr. cv Williams
RUN PARAMETERS: rate 0.1250 kg/ha; rated 4-5 weeks after treatment
Could you please report measured Preemergence herbicidal rating GLXMAW for the items listed next?
Answers are plain numbers.

Here are 3 molecules together with their reported answers.
>  <MOLECULE>
C=CCN1C(=O)C(CC(=O)OC)SC1=Nc1cc(-n2c(=O)cc(C(F)(F)F)n(C)c2=O)c(F)cc1Cl (stereo not shown)

>  <Preemergence herbicidal rating GLXMAW>
3.0

$$$$
>  <MOLECULE>
Cn1c(C(F)(F)F)cc(=O)n(-c2cc(N=C3SCC(=O)N3Cc3ccccc3)c(Cl)cc2F)c1=O

>  <Preemergence herbicidal rating GLXMAW>
0.0

$$$$
>  <MOLECULE>
Cn1c(C(F)(F)F)cc(=O)n(-c2cc(N=C3NC(=O)CS3)c(Cl)cc2F)c1=O

>  <Preemergence herbicidal rating GLXMAW>
5.0

$$$$

Batch: Preemergence herbicidal rating GLXMAW for all items listed.
1. C[C@@H](C(=O)O)N1C(=O)CS/C1=N/c1cc(-n2c(=O)cc(C(F)(F)F)n(C)c2=O)c(F)cc1Cl
2. CCOC(=O)CN1C(=O)C(CCO)S/C1=N/c1cc(-n2c(=O)cc(C(F)(F)F)n(C)c2=O)c(F)cc1Cl (stereo not shown)

1: 1.0; 2: 2.0

Batch: Preemergence herbicidal rating GLXMAW for all items listed.
1. CN1C(=O)C(CC(=O)O)SC1=Nc1cc(-n2c(=O)cc(C(F)(F)F)n(C)c2=O)c(F)cc1Cl (stereo not shown)
2. C=CCOC(=O)CC1SC(=Nc2cc(-n3c(=O)cc(C(F)(F)F)n(C)c3=O)c(F)cc2Cl)N(CC=C)C1=O (stereo not shown)

1: 6.0; 2: 2.0

src = patent US20020137929A1
